Ref: the supplement of paper PMC7017272

- Tested on: UT-SCC-14
- protocol-summary: relative IC50 (midpoint of the fitted curve; maximal inhibition may be below 50%); higher = less potent
- test-conditions: culture condition: embedded in Matrigel; treatment time: 3 days
Class boundaries, taken from values of relative IC50, are as follows: low end (below 0.8 nM), middle (0.8 nM to below 50 nM), high end (50 nM or more)

{"columns": ["structure-smiles", "label-class"],
 "data": [
  ["COc1ncc(-c2ccc3nccc(-c4ccnnc4)c3c2)cc1NS(=O)(=O)c1ccc(F)cc1F", "middle"],
  ["CO[C@H]1C[C@@H]2CC[C@@H](C)[C@@](O)(O2)C(=O)C(=O)N2CCCC[C@H]2C(=O)O[C@H]([C@H](C)C[C@@H]2CC[C@@H](OP(C)(C)=O)[C@H](OC)C2)CC(=O)[C@H](C)/C=C(\\C)[C@@H](O)[C@@H](OC)C(=O)[C@H](C)C[C@H](C)/C=C/C=C/C=C/1C", "low end"],
  ["CO[C@H]1C[C@@H]2CC[C@@H](C)[C@@](O)(O2)C(=O)C(=O)N2CCCC[C@H]2C(=O)O[C@H]([C@H](C)C[C@@H]2CC[C@@H](OC(=O)C(C)(CO)CO)[C@H](OC)C2)CC(=O)[C@H](C)/C=C(\\C)[C@@H](O)[C@@H](OC)C(=O)[C@H](C)C[C@H](C)/C=C/C=C/C=C/1C", "low end"],
  ["CN(C)C/C=C/C(=O)Nc1cc2c(Nc3ccc(F)c(Cl)c3)ncnc2cc1O[C@H]1CCOC1", "middle"],
  ["Cc1c(CN2CCN(C(=O)[C@H](C)O)CC2)sc2c(N3CCOCC3)nc(-c3cnc(N)nc3)nc12", "high end"],
  ["CC(=O)Nc1cccc(-n2c(=O)n(C3CC3)c(=O)c3c(Nc4ccc(I)cc4F)n(C)c(=O)c(C)c32)c1", "middle"],
  ["Cn1cnc2c(F)c(Nc3ccc(Br)cc3Cl)c(C(=O)NOCCO)cc21", "high end"],
  ["CO[C@H]1C[C@@H]2CC[C@@H](C)[C@@](O)(O2)C(=O)C(=O)N2CCCC[C@H]2C(=O)O[C@H]([C@H](C)C[C@@H]2CC[C@@H](O)[C@H](OC)C2)CC(=O)[C@H](C)/C=C(\\C)[C@@H](O)[C@@H](OC)C(=O)[C@H](C)C[C@H](C)/C=C/C=C/C=C/1C", "low end"]
]}

----------
- System: UT-SCC-28
- protocol-summary: maximal % inhibition of viability relative to DMSO; higher = stronger effect
- test-conditions: culture condition: embedded in Myogel + collagen I; treatment time: 3 days

{"columns": ["structure-smiles", "maximal % inhibition of viability, %"],
 "data": [
  ["Cn1c(=O)c(F)c(Nc2ccc(I)cc2F)c2c(=O)n(C[C@@H](O)CO)cnc21", 22.7],
  ["COc1cc(F)c(F)c(Nc2ccc(I)cc2F)c1NS(=O)(=O)C1(C[C@H](O)CO)CC1", 33],
  ["C#Cc1cccc(Nc2ncnc3cc(OCCOC)c(OCCOC)cc23)c1", 14],
  ["C=CC(=O)Nc1cc2c(Nc3ccc(F)c(Cl)c3)ncnc2cc1OCCCN1CCOCC1", 90.8],
  ["CO[C@H]1C[C@@H]2CC[C@@H](C)[C@@](O)(O2)C(=O)C(=O)N2CCCC[C@H]2C(=O)O[C@H]([C@H](C)C[C@@H]2CC[C@@H](OCCO)[C@H](OC)C2)CC(=O)[C@H](C)/C=C(\\C)[C@@H](O)[C@@H](OC)C(=O)[C@H](C)C[C@H](C)/C=C/C=C/C=C/1C", 27.7]
]}

----------
- Test system: UT-SCC-24A
- protocol-summary: drug sensitivity score (DSS); higher = more sensitive
- test-conditions: culture condition: plastic 2D (no matrix); treatment time: 3 days
# if value of drug sensitivity score reaches 3 DSS, tag Condition met; if it stays below, tag Condition not met

{"columns": ["structure-smiles", "label-class"],
 "data": [
  ["Cc1c(CN2CCN(C(=O)[C@H](C)O)CC2)sc2c(N3CCOCC3)nc(-c3cnc(N)nc3)nc12", "Condition met"],
  ["CC(=O)Nc1cccc(-n2c(=O)n(C3CC3)c(=O)c3c(Nc4ccc(I)cc4F)n(C)c(=O)c(C)c32)c1", "Condition met"],
  ["CO[C@H]1C[C@@H]2CC[C@@H](C)[C@@](O)(O2)C(=O)C(=O)N2CCCC[C@H]2C(=O)O[C@H]([C@H](C)C[C@@H]2CC[C@@H](O)[C@H](OC)C2)CC(=O)[C@H](C)/C=C(\\C)[C@@H](O)[C@@H](OC)C(=O)[C@H](C)C[C@H](C)/C=C/C=C/C=C/1C", "Condition met"],
  ["COc1ccc(-c2cc3c(C)nc(N)nc3n([C@H]3CC[C@H](OCCO)CC3)c2=O)cn1", "Condition met"],
  ["Cn1c(=O)n(-c2ccc(C(C)(C)C#N)cc2)c2c3cc(-c4cnc5ccccc5c4)ccc3ncc21", "Condition not met"]
]}

----------
In this section, each of the compounds is paired with its reported maximal % inhibition of viability.
- Tested on: UT-SCC-81
- protocol-summary: maximal % inhibition of viability relative to DMSO; higher = stronger effect
- test-conditions: culture condition: on top of Myogel; treatment time: 3 days

{"columns": ["compound", "target-or-test-system", "unit-annotation", "maximal % inhibition of viability"],
 "data": [
  ["CN(C)C/C=C/C(=O)Nc1cc2c(Nc3ccc(F)c(Cl)c3)ncnc2cc1O[C@H]1CCOC1 [Afatinib]", "UT-SCC-81", "%", 23],
  ["CO[C@H]1C[C@@H]2CC[C@@H](C)[C@@](O)(O2)C(=O)C(=O)N2CCCC[C@H]2C(=O)O[C@H]([C@H](C)C[C@@H]2CC[C@@H](OCCO)[C@H](OC)C2)CC(=O)[C@H](C)/C=C(\\C)[C@@H](O)[C@@H](OC)C(=O)[C@H](C)C[C@H](C)/C=C/C=C/C=C/1C [Everolimus]", "UT-SCC-81", "%", 53.2],
  ["COc1cc(F)c(F)c(Nc2ccc(I)cc2F)c1NS(=O)(=O)C1(C[C@H](O)CO)CC1 [Refametinib]", "UT-SCC-81", "%", 52],
  ["Cc1c(CN2CCN(C(=O)[C@H](C)O)CC2)sc2c(N3CCOCC3)nc(-c3cnc(N)nc3)nc12 [Apitolisib]", "UT-SCC-81", "%", 79.9],
  ["Cn1c(=O)n(-c2ccc(C(C)(C)C#N)cc2)c2c3cc(-c4cnc5ccccc5c4)ccc3ncc21 [Dactolisib]", "UT-SCC-81", "%", 11.2],
  ["Cn1cnc2c(F)c(Nc3ccc(Br)cc3Cl)c(C(=O)NOCCO)cc21 [Selumetinib]", "UT-SCC-81", "%", 54.2]
]}

----------
In this section, each of the compounds is paired with its reported drug sensitivity score.
- Test system: UT-SCC-24B
- protocol-summary: drug sensitivity score (DSS); higher = more sensitive; extreme values may be limits of the assay
- test-conditions: culture condition: plastic 2D (no matrix); treatment time: 3 days

{"columns": ["structure-smiles", "drug sensitivity score [DSS]"],
 "data": [
  ["Cn1c(=O)n(-c2ccc(C(C)(C)C#N)cc2)c2c3cc(-c4cnc5ccccc5c4)ccc3ncc21", 12.8],
  ["CO[C@H]1C[C@@H]2CC[C@@H](C)[C@@](O)(O2)C(=O)C(=O)N2CCCC[C@H]2C(=O)O[C@H]([C@H](C)C[C@@H]2CC[C@@H](OC(=O)C(C)(CO)CO)[C@H](OC)C2)CC(=O)[C@H](C)/C=C(\\C)[C@@H](O)[C@@H](OC)C(=O)[C@H](C)C[C@H](C)/C=C/C=C/C=C/1C", 4.77],
  ["COc1ncc(-c2ccc3nccc(-c4ccnnc4)c3c2)cc1NS(=O)(=O)c1ccc(F)cc1F", 21.6],
  ["COc1cc2ncnc(Nc3ccc(F)c(Cl)c3)c2cc1OCCCN1CCOCC1", 17.5],
  ["COc1cc(F)c(F)c(Nc2ccc(I)cc2F)c1NS(=O)(=O)C1(C[C@H](O)CO)CC1", 16.4],
  ["O=C(NC[C@H](O)CO)c1ccncc1Nc1ccc(I)cc1F", 20.3]
]}

----------
- Test system: UT-SCC-42A
- protocol-summary: relative IC50 (midpoint of the fitted curve; maximal inhibition may be below 50%); higher = less potent
- test-conditions: culture condition: on top of Myogel; treatment time: 3 days
# if value of relative IC50 reaches 20 nM, tag 1; if it stays below, tag 0

{"columns": ["structure-smiles", "label-class"],
 "data": [
  ["CO[C@H]1C[C@@H]2CC[C@@H](C)[C@@](O)(O2)C(=O)C(=O)N2CCCC[C@H]2C(=O)O[C@H]([C@H](C)C[C@@H]2CC[C@@H](OC(=O)C(C)(CO)CO)[C@H](OC)C2)CC(=O)[C@H](C)/C=C(\\C)[C@@H](O)[C@@H](OC)C(=O)[C@H](C)C[C@H](C)/C=C/C=C/C=C/1C", 0],
  ["Cc1c(CN2CCN(C(=O)[C@H](C)O)CC2)sc2c(N3CCOCC3)nc(-c3cnc(N)nc3)nc12", 1],
  ["CO[C@H]1C[C@@H]2CC[C@@H](C)[C@@](O)(O2)C(=O)C(=O)N2CCCC[C@H]2C(=O)O[C@H]([C@H](C)C[C@@H]2CC[C@@H](O)[C@H](OC)C2)CC(=O)[C@H](C)/C=C(\\C)[C@@H](O)[C@@H](OC)C(=O)[C@H](C)C[C@H](C)/C=C/C=C/C=C/1C", 0],
  ["COc1ncc(-c2ccc3nccc(-c4ccnnc4)c3c2)cc1NS(=O)(=O)c1ccc(F)cc1F", 0],
  ["Cn1c(=O)n(-c2ccc(C(C)(C)C#N)cc2)c2c3cc(-c4cnc5ccccc5c4)ccc3ncc21", 1],
  ["Cn1cnc2c(F)c(Nc3ccc(Br)cc3Cl)c(C(=O)NOCCO)cc21", 1],
  ["CN(C)C/C=C/C(=O)Nc1cc2c(Nc3ccc(F)c(Cl)c3)ncnc2cc1O[C@H]1CCOC1", 1],
  ["CO[C@H]1C[C@@H]2CC[C@@H](C)[C@@](O)(O2)C(=O)C(=O)N2CCCC[C@H]2C(=O)O[C@H]([C@H](C)C[C@@H]2CC[C@@H](OCCO)[C@H](OC)C2)CC(=O)[C@H](C)/C=C(\\C)[C@@H](O)[C@@H](OC)C(=O)[C@H](C)C[C@H](C)/C=C/C=C/C=C/1C", 0],
  ["Cn1cnc2c(F)c(Nc3ccc(Br)cc3F)c(C(=O)NOCCO)cc21", 0],
  ["C=CC(=O)Nc1cc2c(Nc3ccc(F)c(Cl)c3)ncnc2cc1OCCCN1CCOCC1", 1]
]}
